Quick reference for pEC50 among some compounds
Subject Of Test: human mAChR M1 (Homo sapiens, UniProt P11229)
Test: mAChR M1 cell-based functional assay: calcium mobilization, positive allosteric modulator mode (increase in EC20 acetylcholine response)
Applied Conditions: Table 2; human M1; read-out: Human M1 EC50
pEC50: −log10 of the molar value.

Reference set, count: 6
> print(dat)
                                   compound                           subject.of.test  recorded.measurement
1  O=C(NC12CC(C1)C2)c1cc(Cc2ccc(-c3cscn3)cc2)c2sccc2n1  human mAChR M1 (Homo sapiens, UniProt P11229)                < 5.00
2  Cc1nc(-c2ccc(Cc3cc(C(=O)N4CCC[C@@H](O)C4)nc4ccsc34)cc2)co1  human mAChR M1 (Homo sapiens, UniProt P11229)                < 5.00
3  Cc1nc(-c2ccc(Cc3cc(C(=O)NC4(C)COC4)nc4ccsc34)cc2)cs1  human mAChR M1 (Homo sapiens, UniProt P11229)                < 5.00
4  Cc1nn(C)c(C)c1-c1ccc(Cc2cc(C(=O)NC3CC4(COC4)C3)nc3ccsc23)cc1  human mAChR M1 (Homo sapiens, UniProt P11229)                < 5.00
5  O=C(NC1CCC1)c1cc(Cc2ccc(-n3cccn3)cc2)c2sccc2n1  human mAChR M1 (Homo sapiens, UniProt P11229)                  5.82
6  CN1CC(NC(=O)c2cc(Cc3ccc(-n4cccn4)cc3)c3sccc3n2)CC1=O (centres unmarked)  human mAChR M1 (Homo sapiens, UniProt P11229)                  5.66

Value wanted: pEC50 (human mAChR M1 (Homo sapiens, UniProt P11229)) of entry O=C(NC1COC1)c1cc(Cc2ccc(-c3cncs3)cc2)c2sccc2n1
< 5.00

For O=C(NC1CCN2CCCC12)c1cc(Cc2ccc(-c3cscn3)cc2)c2sccc2n1 (centres unmarked) then?
5.89

----------
Subject Of Test: human mAChR M1 (Homo sapiens, UniProt P11229)
Test: mAChR M1 cell-based functional assay: calcium mobilization, positive allosteric modulator mode (increase in EC20 acetylcholine response)
Applied Conditions: Table 2; human M1; read-out: Human M1 Emax (%)
Readout Kind: Emax (%)
Express your answer in %, writing the number without its unit.

> print(dat)
                                   compound  unit.text  recorded.measurement
1  COCCNC(=O)c1cc(Cc2ccc(-c3cncs3)cc2)c2sccc2n1          %                  60.8
2  Cn1ccc(-c2ccc(Cc3cc(C(=O)NCC4CCOC4)nc4ccsc34)cn2)n1 (centres unmarked)          %                  84.8
3  CC1CC(NC(=O)c2cc(Cc3ccc(-c4ccn(C)n4)cc3)c3sccc3n2)CC(C)O1 (centres unmarked)          %                  83.9

What measured Emax is associated with COCCNC(=O)c1cc(Cc2ccc(-c3ccn(C)n3)nc2)c2sccc2n1 on human mAChR M1 (Homo sapiens, UniProt P11229)?
71.4

Likewise for Cc1nc(-c2ccc(Cc3cc(C(=O)N[C@@H]4COCC[C@H]4O)nc4ccsc34)cc2)co1 ?
90.4

----------
Catalogue of Emax readings, one per entry.
Subject Of Test: UniProt:P11229
Sequence (P11229 1-460): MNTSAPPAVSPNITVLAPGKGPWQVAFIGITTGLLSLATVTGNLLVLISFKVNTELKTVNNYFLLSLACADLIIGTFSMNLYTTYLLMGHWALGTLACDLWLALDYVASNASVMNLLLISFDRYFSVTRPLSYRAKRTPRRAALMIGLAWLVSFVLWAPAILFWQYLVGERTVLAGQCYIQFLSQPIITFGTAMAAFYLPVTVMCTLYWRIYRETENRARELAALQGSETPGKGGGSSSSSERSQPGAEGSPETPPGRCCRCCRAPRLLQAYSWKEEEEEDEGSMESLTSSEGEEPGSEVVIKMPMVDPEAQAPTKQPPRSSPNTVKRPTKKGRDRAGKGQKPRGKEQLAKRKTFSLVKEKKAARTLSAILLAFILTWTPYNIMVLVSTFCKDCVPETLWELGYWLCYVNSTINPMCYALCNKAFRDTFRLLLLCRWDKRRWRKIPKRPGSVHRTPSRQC
Test: mAChR M1 cell-based functional assay: calcium mobilization, positive allosteric modulator mode (increase in EC20 acetylcholine response)
Applied Conditions: Table 2; human M1; read-out: Human M1 Emax (%)
Description: a. Cell Lines Expressing Muscarinic Acetylcholine Receptors Chinese hamster ovary (CHO-K1) cells stably expressing rat (r)M1 were purchased from the American Type Culture Collection and cultured according to their indicated protocol. […] Calcium flux was measured using the Functional Drug Screening System (FDSS) 6000 (Hamamatsu Corporation, Tokyo, Japan) as an increase in the fluorescent static ratio. […]
Response body: numeric value in %, unit text excluded.

> print(dat)
                                   compound  readout.kind  unit.text  recorded.measurement
1  Cc1nc(-c2ccc(Cc3cc(C(=O)N[C@H]4CCCCC[C@@H]4O)nc4ccsc34)cc2)cs1          Emax          %                  81.3

Give recorded Emax with UniProt:P11229 for the following compound: Cn1ccc(-c2ccc(Cc3cc(C(=O)NC[C@@H]4CCCN4)nc4ccsc34)cn2)n1
62.7

What would you report for Cc1nc(-c2ccc(Cc3cc(C(=O)N(C)C4CCOCC4)nc4ccsc34)cc2)cs1 ?
75.5

# iterate: Cc1ncc(Cc2cc(C(=O)NC3CCCCNC3=O)nc3ccsc23)s1 (stereo not drawn)
50.7

Query Cc1csc2c(Cc3ccc(-n4cccn4)cc3)cc(C(=O)NC3COC3)nc12 next
56.1

Cool, now Cn1ccc2nc(C(=O)N[C@H]3CCOC3)cc(Cc3ccc(-c4cscn4)cc3)c21
71.2

----------
Subject Of Test: human mAChR M1 (Homo sapiens)
Test: mAChR M1 cell-based functional assay: calcium mobilization, positive allosteric modulator mode (increase in EC20 acetylcholine response)
Applied Conditions: Table 2; human M1; read-out: Human M1 Emax (%)
Readout Kind: Emax (%)
A number alone suffices; assume %.

> print(dat)
                                   compound  recorded.measurement
1  Cc1ncc(Cc2cc(C(=O)NC3CCOCC3)nc3ccsc23)cn1                  27.4
2  Cc1nc(-c2ccc(Cc3cc(C(=O)NC4CCCCNC4=O)nc4ccsc34)cc2)co1 (stereo not drawn)                  88.8
3  O=C(N[C@@H]1CCCOC1)c1cc(Cc2ccc(-c3cscn3)cc2)c2sccc2n1                  73.3
4  O=C(NC1CC(F)C1)c1cc(Cc2ccc(-c3cncs3)cc2)c2sccc2n1 (stereo not drawn)                  40.5
5  Cn1ccc(-c2ccc(Cc3cc(C(=O)N[C@H]4CCCC[C@@H]4O)nc4ccsc34)cn2)n1                  64.2

Recorded Emax of CO[C@@H]1CCCC[C@H]1NC(=O)c1cc(Cc2ccc(-c3coc(C)n3)cc2)c2sccc2n1 , please.
84.1

Try O=C(NC1CN(C2COC2)C1)c1cc(Cc2ccc(-n3cccn3)cc2)c2sccc2n1 next.
65.4

Follow-up entry: Cn1cc(-c2ccc(Cc3cc(C(=O)NCC4CCCCO4)nc4ccsc34)cn2)cn1 (stereo not drawn)
88.3

Also, Cc1ccc(Cc2cc(C(=O)NC34CC5CC(CC(O)(C5)C3)C4)nc3ccsc23)cn1 please.
87

Check Cc1ccc(Cc2cc(C(=O)Nc3n[nH]c4ccccc34)nc3ccsc23)cn1 too.
37.3

----------
Subject Of Test: human mAChR M1 (Homo sapiens, UniProt P11229)
Sequence (P11229 1-460): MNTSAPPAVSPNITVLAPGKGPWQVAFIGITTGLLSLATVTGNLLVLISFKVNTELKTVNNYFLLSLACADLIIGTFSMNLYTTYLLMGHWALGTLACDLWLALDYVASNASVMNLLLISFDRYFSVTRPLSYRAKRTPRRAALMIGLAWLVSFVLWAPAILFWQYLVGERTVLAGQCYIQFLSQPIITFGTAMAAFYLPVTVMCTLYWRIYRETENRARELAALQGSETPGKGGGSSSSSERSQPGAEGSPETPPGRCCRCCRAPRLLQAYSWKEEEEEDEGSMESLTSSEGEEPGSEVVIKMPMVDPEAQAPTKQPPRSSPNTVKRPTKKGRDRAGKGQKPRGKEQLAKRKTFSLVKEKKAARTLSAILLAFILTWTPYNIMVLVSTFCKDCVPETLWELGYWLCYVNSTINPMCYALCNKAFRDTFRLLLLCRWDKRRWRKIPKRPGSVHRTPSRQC
Test: mAChR M1 cell-based functional assay: calcium mobilization, positive allosteric modulator mode (increase in EC20 acetylcholine response)
Applied Conditions: Table 2; human M1; read-out: Human M1 Emax (%)
Readout Kind: Emax (%)
Only the number, expressed in %, is required.

Worked cases, Emax given:
> print(dat)
                                   compound                           subject.of.test  readout.kind  recorded.measurement
1  Cc1nc(-c2ccc(Cc3cc(C(=O)NC4CCOC(C)(C)C4)nc4ccsc34)cc2)co1 (centres unmarked) [Compound 300]  human mAChR M1 (Homo sapiens, UniProt P11229)          Emax                  75.3
2  C[C@@H]1CC(NC(=O)c2cc(Cc3ccc(-c4cscn4)cc3)c3c(ccn3C)n2)C[C@H](C)O1 (some centres unmarked) [Compound 460]  human mAChR M1 (Homo sapiens, UniProt P11229)          Emax                  70.3
3  CC(C)(C)N1CC(NC(=O)c2cc(Cc3ccc(-n4cccn4)cc3)c3sccc3n2)C1 [Compound 434]  human mAChR M1 (Homo sapiens, UniProt P11229)          Emax                  66.2
4  O=C(NCC1CCOC1)c1cc(Cc2ccc(-c3nccs3)cc2)c2sccc2n1 (centres unmarked) [Compound 374]  human mAChR M1 (Homo sapiens, UniProt P11229)          Emax                  73.1

Continue with the compound presented below.
Please give the measured Emax for this compound: Cn1cc(-c2ccc(Cc3cc(C(=O)N[C@@H]4CCC[C@H]4O)nc4ccsc34)cc2)nn1 [Compound 149]
85
